Assay: NCI Yeast Anticancer Drug Screen. Data for the mlh1 rad18 strain (AID 175)
Conditions: S. cerevisiae mlh1 rad18 strain growth inhibition; at 50.0 µM; active compounds read high
Method: Growth inhibition of yeast strains with defined genetic alterations is measured as a screen for potential anti-cancer activity. Selected strains with alterations in DNA damage repair or cell cycle control were exposed to compounds and growth inhibition was measured relative to vehicle treated controls. The strain used in this assay is mlh1 rad18
The panel holds about 79,000 compounds, 15% with a hit somewhere; the sample as a whole holds those more often.
Quantity name: growth inhibition (%)
The reply should contain only the number, in %.

Would you please look over these solved cases?
> print(dat)
                                   molecule      quantity.name  units  observed.result
1                          COc1ccccc1C(=O)O  growth inhibition      %               -5
2  CCOC(=O)C(NC(=O)CC)(C(F)(F)F)P(=O)(OCC)OCC (stereo not drawn)  growth inhibition      %            -9.35
3  CCC(O)(c1ccc(O)cc1)C(O)(CC)c1ccc(O)cc1 (stereo not drawn)  growth inhibition      %            -14.4
4               CN(C)C(=O)CCOc1cccc2ccccc12  growth inhibition      %                1
5  O=[N+]([O-])c1cc(Cl)cc2c1nc(NCCCO)c1ccccc12  growth inhibition      %             27.9

So, CC1(S)CCC2CC1C2(C)C (stereo not drawn) ? Its growth inhibition was -12.1

So, COc1cc(C)nc2ccc(Cc3ccc4nc(C)cc(OC)c4c3)cc12 ? Its growth inhibition was 25.6

So, NS(=O)(=O)c1ccc(NC(=O)Nc2ccccc2)cc1 ? Its growth inhibition was 22.3

So, Cc1ccc(Nc2nc3ccccc3nc2NS(=O)(=O)c2ccc(N)cc2)cc1 ? Its growth inhibition was -4.2

So, O=C(NC1(C(=O)O)CCCC1)C(F)(F)F ? Its growth inhibition was -8.25

So, COc1cc2nncc(SCc3ccc(Cl)cc3Cl)c2cc1OC ? Its growth inhibition was 8.25

So, OC12c3ccccc3C1(N1CCOCC1)CCCCC21OCCCO1 (stereo not drawn) ? Its growth inhibition was -5.15

So, COc1ccc(N(CN2C(=O)CCC2=O)CS(=O)(=O)c2ccc(Cl)cc2)cc1 ? Its growth inhibition was -16.4

Source of measurements: PubChem BioAssay (NCI)
